- Test system: HEK293T (UBE3A T485A transfected, BAR Wnt reporter)
- ASSAY TEXT: Wnt reporter firefly/Renilla luciferase ratio relative to plate median (fold (linear ratio)); higher = more Wnt/beta-catenin reporter activation
- TEST CONDITIONS: concentration: 10 uM; 24 h
The full ranking holds about 1,100 compounds; the median of “Wnt reporter firefly/Renilla luciferase ratio relative to plate median” is about 1.1, and the highest 2% start at about 1.6. The full list was thinned out, with the highest values kept by preference.
Assign class by Wnt reporter firefly/Renilla luciferase ratio: not lower than 0.9 means Y; lower than 0.9 means N.

See these solved cases before continuing.
# STRUCTURE SMILES STRING, ASSIGNED LABEL
rows = [
    ("O=c1nc(-c2ccc(C(F)(F)F)cc2)[nH]c2c1CSCC2", "N"),
    ("CC[C@H](NC(=O)c1cc(F)ccc1[N-]S(=O)(=O)c1cccc2cccnc12)c1ccccc1.[Na+]", "Y"),
    ("CO[C@H]1/C=C/O[C@@]2(C)Oc3c(C)c(O)c4c(O)c(c(/C=N/N5CCN(C)CC5)c(O)c4c3C2=O)NC(=O)/C(C)=C\\C=C\\[C@H](C)[C@H](O)[C@@H](C)[C@@H](O)[C@@H](C)[C@H](OC(C)=O)[C@@H]1C", "Y"),
]

Problem: Check if Wnt reporter firefly/Renilla luciferase ratio >= 0.9 (inclusive). Item: "C[C@]12CC[C@@H]3c4ccc(O)cc4CC[C@H]3[C@@H]1CC[C@H]2O"
Result: N

Problem: Is it the case that "CCCOC(=O)c1ccc(O)cc1" has Wnt reporter firefly/Renilla luciferase ratio reaching or exceeding 0.9?
Result: Y

Problem: Is reported Wnt reporter firefly/Renilla luciferase ratio greater than or equal to 0.9 here: "OC(Cn1cncn1)(Cn1cncn1)c1ccc(F)cc1F"
Result: Y

Numbers sourced from the supplement of paper PMC9254222.
